Test system: LOC_OS01G13800-cb001
assay.comment: thermal shift delta Tm vs DMSO control; higher = stronger stabilization (binding);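 note: purified Escherichia coli-expressed rice kinase domain construct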
details: 12.5 µM; protein concentration 2 µM
observed.property: thermal shift delta Tm (°C)

[[record]]
molecule = "CN1CCN(C2CCN(C(=O)Nc3cc(Oc4ccc(NC(=O)C5(C(=O)Nc6ccc(F)cc6)CC5)c(F)c4)ccn3)CC2)CC1 [Golvatinib (E7050)]"
measurement_unit = "°C"
meas_value = 0.07

[[record]]
molecule = "Cc1c(C(=O)N2CCOc3ccc(-c4ccc(N)nc4)cc3C2)ccc(S(C)(=O)=O)c1F"
measurement_unit = "°C"
meas_value = 0.06

[[record]]
molecule = "CCNC(=O)Nc1ccc(-c2nc(N3CCOC[C@@H]3C)c3c(n2)C(C)(C)S(=O)(=O)C3)cc1"
measurement_unit = "°C"
meas_value = 0.09

[[record]]
molecule = "C=CC(=O)Nc1ccc2ncnc(Nc3ccc(OCc4cccc(F)c4)c(Cl)c3)c2c1"
measurement_unit = "°C"
meas_value = 2.47


---

Entries annotated with measured thermal shift delta Tm
Test system: LOC_OS02G54510-cb004
assay.comment: thermal shift delta Tm vs DMSO control; higher = stronger stabilization (binding)
details: 12.5 µM; protein concentration 2 µM
observed.property: thermal shift delta Tm

[[record]]
compound = "COc1ccc2c(Oc3ccc(NC(=O)c4c(C)n(CC(C)(C)O)n(-c5ccccc5)c4=O)nc3)ccnc2c1"
meas_value = "0.7 °C"

[[record]]
compound = "CN1CCN(c2ccc3nc(-c4c(N)c5c(F)cccc5[nH]c4=O)[nH]c3c2)CC1"
meas_value = "0.96 °C"

[[record]]
compound = "CC(C)[C@H](CO)Nc1nc(Nc2cccc(Cl)c2)c2ncn(C(C)C)c2n1"
meas_value = "2.06 °C"

[[record]]
compound = "COc1cc(F)c(F)c(Nc2ccc(I)cc2F)c1NS(=O)(=O)C1(C[C@H](O)CO)CC1 [Refametinib (RDEA119, Bay 86-9766)]"
meas_value = "0.25 °C"


---

Tested on: LOC_OS01G57100-cb003
assay.comment: thermal shift delta Tm vs DMSO control; higher = stronger stabilization (binding)
details: 12.5 µM; protein concentration 2 µM
Where a name gives a salt, the structure may show the parent alone.
observed.property: thermal shift delta Tm (°C)

[[record]]
compound = "CCN(CC)CCCC(C)Nc1ccnc2cc(Cl)ccc12 (centres undefined) [Chloroquine Phosphate]"
measurement_unit = "°C"
meas_value = 0.41

[[record]]
compound = "Cc1cccc(CC(=O)N2CCc3c2ccc(-c2cn(C)c4ncnc(N)c24)c3F)n1"
measurement_unit = "°C"
meas_value = 1.41

[[record]]
compound = "CC(=O)Nc1nc(C)c(-c2ccc(Cl)c(S(=O)(=O)NCCO)c2)s1"
measurement_unit = "°C"
meas_value = 1.34

[[record]]
compound = "COc1cc(OC)c(/C=C/S(=O)(=O)Cc2ccc(OC)c(NCC(=O)O)c2)c(OC)c1"
measurement_unit = "°C"
meas_value = 0.72

[[record]]
compound = "N#Cc1ccc2[nH]c(O)c(-c3ccc(CN4CCOCC4)cn3)c2c1"
measurement_unit = "°C"
meas_value = -0.18

[[record]]
compound = "CC(C)(C#N)c1ccc(N2C(=O)OCc3cnc4ccc(-c5cnc6ccccc6c5)cc4c32)cc1"
measurement_unit = "°C"
meas_value = 1.9

[[record]]
compound = "COc1cc2ncnc(Nc3ccc(F)c(Cl)c3)c2cc1NC(=O)/C=C/CN1CCCCC1"
measurement_unit = "°C"
meas_value = 2.23

[[record]]
compound = "COc1cc2ncnc(Nc3ccc(F)c(Cl)c3)c2cc1OCCCN1CCOCC1 [Gefitinib (ZD1839)]"
measurement_unit = "°C"
meas_value = 0.37

[[record]]
compound = "O=C(Nc1cccc(Cl)c1)Nc1ncc(CCNc2ncnc3ccsc23)s1 [SNS-314 Mesylate]"
measurement_unit = "°C"
meas_value = 2.62


---

Item-by-item account of thermal shift delta Tm
Test system: LOC_OS05G28520-cb001
assay.comment: thermal shift delta Tm vs DMSO control; higher = stronger stabilization (binding)
details: 12.5 µM; protein concentration 2 µM
observed.property: thermal shift delta Tm (°C)

[[record]]
molecule_smiles = "COc1cc2nccc(Oc3ccc(NC(=O)C4(C(=O)Nc5ccc(F)cc5)CC4)cc3)c2cc1OC"
target_or_test_system = "LOC_OS05G28520-cb001"
meas_value = 7.75

[[record]]
molecule_smiles = "CCCCNc1ncc2c(-c3ccc(CN4CCN(C)CC4)cc3)cn([C@H]3CC[C@H](O)CC3)c2n1"
target_or_test_system = "LOC_OS05G28520-cb001"
meas_value = 0.68

[[record]]
molecule_smiles = "Cc1ccc(NC(=O)Nc2cc(C(F)(F)F)ccc2F)cc1Nc1ccc2c(c1)NC(=O)/C2=C\\c1ccc[nH]1"
target_or_test_system = "LOC_OS05G28520-cb001"
meas_value = 0.81

[[record]]
molecule_smiles = "OCCn1cc(-c2cnc3nnn(Cc4ccc5ncccc5c4)c3n2)cn1"
target_or_test_system = "LOC_OS05G28520-cb001"
meas_value = 0.66

[[record]]
molecule_smiles = "N#CC(=C(/N)Sc1ccccc1N)/C(C#N)=C(\\N)Sc1ccccc1N"
target_or_test_system = "LOC_OS05G28520-cb001"
meas_value = 1.16

[[record]]
molecule_smiles = "CCOc1cc(C(=O)N2CCC(N3CCN(C)CC3)CC2)ccc1Nc1ncc2c(n1)N(C1CCCC1)c1ccccc1C(=O)N2C"
target_or_test_system = "LOC_OS05G28520-cb001"
meas_value = 0.22

[[record]]
molecule_smiles = "CNC(=O)c1nn(C)c2c1C(C)(C)Cc1cnc(Nc3ccc(N4CCN(C)CC4)cc3)nc1-2"
target_or_test_system = "LOC_OS05G28520-cb001"
meas_value = 4.23

[[record]]
molecule_smiles = "CN1CCN(c2ccc(Nc3cc(-c4cccc(-n5ccc6cc(C7CC7)cc(F)c6c5=O)c4CO)cn(C)c3=O)nc2)CC1"
target_or_test_system = "LOC_OS05G28520-cb001"
meas_value = 0.6

[[record]]
molecule_smiles = "Nc1ccc(-c2ccc3ncc4ccc(=O)n(-c5cccc(C(F)(F)F)c5)c4c3c2)cn1"
target_or_test_system = "LOC_OS05G28520-cb001"
meas_value = 0.76

[[record]]
molecule_smiles = "NC(=O)c1cnc2[nH]ccc2c1N[C@@H]1[C@@H]2CC3C[C@H]1C[C@@](O)(C3)C2"
target_or_test_system = "LOC_OS05G28520-cb001"
meas_value = 0.32

[[record]]
molecule_smiles = "COc1ccc(Cl)cc1NC(=O)Nc1cc(C)nc2ccccc12"
target_or_test_system = "LOC_OS05G28520-cb001"
meas_value = 0.38

[[record]]
molecule_smiles = "CC(C)n1ncnc1-c1cn2c(n1)-c1ccc(O[C@@H](C)C(N)=O)cc1OCC2"
target_or_test_system = "LOC_OS05G28520-cb001"
meas_value = 0.38

[[record]]
molecule_smiles = "O=c1ccc2ccc(O)c(O)c2o1"
target_or_test_system = "LOC_OS05G28520-cb001"
meas_value = 0.77

[[record]]
molecule_smiles = "COc1cccc2cc(-c3nc([C@H]4CC[C@H](C(=O)O)CC4)n4ncnc(N)c34)[nH]c12"
target_or_test_system = "LOC_OS05G28520-cb001"
meas_value = 0.34

[[record]]
molecule_smiles = "N#Cc1cccc(-c2c[nH]c3ncnc(N4CCOCC4)c23)c1"
target_or_test_system = "LOC_OS05G28520-cb001"
meas_value = 0.3

[[record]]
molecule_smiles = "CCc1ccc(/C=C2/SC(=S)NC2=O)cc1"
target_or_test_system = "LOC_OS05G28520-cb001"
meas_value = 1.2

[[record]]
molecule_smiles = "CN1c2ccccc2C(=O)Nc2cnc(Nc3ccc(N4CCC(O)CC4)cc3)nc21"
target_or_test_system = "LOC_OS05G28520-cb001"
meas_value = 0.16

[[record]]
molecule_smiles = "O=C(Nc1cccnc1)c1cc(-c2ccnc(F)c2)ccc1OCc1ccccc1"
target_or_test_system = "LOC_OS05G28520-cb001"
meas_value = 0.34

[[record]]
molecule_smiles = "Cc1nc2ccc(-n3ncc(C(=O)c4cc5ccccc5[nH]4)c3N)cc2[nH]1"
target_or_test_system = "LOC_OS05G28520-cb001"
meas_value = 0.51


---

System: LOC_OS01G51400-cb002
assay.comment: thermal shift delta Tm vs DMSO control; higher = stronger stabilization (binding)
details: 12.5 µM; protein concentration 2 µM
Structures can show the parent of a compound that is named as a salt.
observed.property: thermal shift delta Tm (°C)

[[record]]
compound = "COc1ccc(CC(=O)Nc2nc3c(s2)CCc2ccccc2-3)cc1OC"
observed_property = "thermal shift delta Tm"
meas_value = -0.32

[[record]]
compound = "Cn1nccc1Nc1nccc(-c2ccn([C@H](CO)c3ccc(Cl)c(F)c3)c(=O)c2)n1"
observed_property = "thermal shift delta Tm"
meas_value = 0.59

[[record]]
compound = "CS(=O)(=O)N1CCN(Cc2cc3nc(-c4cccc5[nH]ncc45)nc(N4CCOCC4)c3s2)CC1 [Pictilisib (GDC-0941)]"
observed_property = "thermal shift delta Tm"
meas_value = -0.08

[[record]]
compound = "CC(C)(C)NS(=O)(=O)c1cncc(-c2cc(F)c3nc(N)nn3c2)c1"
observed_property = "thermal shift delta Tm"
meas_value = 0.36

[[record]]
compound = "Cc1c(CN2CCN(C(=O)[C@H](C)O)CC2)sc2c(N3CCOCC3)nc(-c3cnc(N)nc3)nc12 [Apitolisib (GDC-0980, RG7422)]"
observed_property = "thermal shift delta Tm"
meas_value = 0.53

[[record]]
compound = "COc1ccc2c(c1)[C@]1(C[C@H]1c1ccc3c(/C=C/c4ccc(CN5C[C@@H](C)O[C@@H](C)C5)cc4)n[nH]c3c1)C(=O)N2"
observed_property = "thermal shift delta Tm"
meas_value = 1.27

[[record]]
compound = "C#Cc1cccc(Nc2ncnc3cc4c(cc23)OCCOCCOCCO4)c1 [Icotinib]"
observed_property = "thermal shift delta Tm"
meas_value = 0.45

[[record]]
compound = "CCOc1cc(N2CCC(O)CC2)ccc1Nc1ncc2c(n1)N(C)c1ccccc1C(=O)N2C"
observed_property = "thermal shift delta Tm"
meas_value = 0.06

[[record]]
compound = "C=CC(=O)Nc1cccc(Nc2nc(Nc3ccc(Oc4ccnc(C(=O)NC)c4)cc3)ncc2F)c1"
observed_property = "thermal shift delta Tm"
meas_value = 0.31

[[record]]
compound = "Cn1cnc2c(F)c(Nc3ccc(Br)cc3Cl)c(C(=O)NOCCO)cc21 [Selumetinib (AZD6244)]"
observed_property = "thermal shift delta Tm"
meas_value = 0.36

[[record]]
compound = "O=C(NOCC1CC1)c1ccc(F)c(F)c1Nc1ccc(I)cc1Cl"
observed_property = "thermal shift delta Tm"
meas_value = 0.54

[[record]]
compound = "COc1ccc(COc2ccc(Cc3cnc(N)nc3N)cc2OC)cc1"
observed_property = "thermal shift delta Tm"
meas_value = 0.2

[[record]]
compound = "CCn1c(=O)c(-c2ccc(-c3cncs3)cc2Cl)cc2cnc(Nc3ccc(N4CCN(C)CC4)cc3)nc21"
observed_property = "thermal shift delta Tm"
meas_value = 0.02

[[record]]
compound = "Cn1cnc2c(F)c(Nc3ccc(Br)cc3F)c(C(=O)NOCCO)cc21"
observed_property = "thermal shift delta Tm"
meas_value = 0.53

[[record]]
compound = "CC(C)(C)c1cc(NC(=O)Nc2ccc(-c3cn4c(n3)sc3cc(OCCN5CCOCC5)ccc34)cc2)no1 [Quizartinib (AC220)]"
observed_property = "thermal shift delta Tm"
meas_value = -0.16

[[record]]
compound = "CNC(=O)c1ccccc1Nc1cc(Nc2ccc(N3CCOCC3)cc2OC)ncc1C(F)(F)F"
observed_property = "thermal shift delta Tm"
meas_value = 0.74

[[record]]
compound = "CCOc1cc2ncc(C#N)c(Nc3ccc(OCc4ccccn4)c(Cl)c3)c2cc1NC(=O)/C=C/CN(C)C [Neratinib (HKI-272)]"
observed_property = "thermal shift delta Tm"
meas_value = 0.27

[[record]]
compound = "CC(=O)O/N=C1/C(c2c(O)[nH]c3cc(Br)ccc23)=Nc2ccccc21 [BIO-acetoxime]"
observed_property = "thermal shift delta Tm"
meas_value = 0.25

[[record]]
compound = "CC(C)(O)CNc1ncc(-c2ccnc(Nc3ccncc3)n2)c(CC2CC2)n1 [VPS34 inhibitor 1 (Compound 19, PIK-III analogue)]"
observed_property = "thermal shift delta Tm"
meas_value = 0.29

[[record]]
compound = "C[C@@H](Oc1ccc2[nH]nc(/C=C/c3cnn(CCO)c3)c2c1)c1c(Cl)cncc1Cl"
observed_property = "thermal shift delta Tm"
meas_value = 0.89

[[record]]
compound = "CN(C)CCCn1cc(C2=C(c3c[nH]c4ccccc34)C(=O)NC2=O)c2ccccc21"
observed_property = "thermal shift delta Tm"
meas_value = 0.26

[[record]]
compound = "Clc1ccc(Nc2nnc(Cc3ccncc3)c3ccccc23)cc1 [Vatalanib (PTK787) 2HCl]"
observed_property = "thermal shift delta Tm"
meas_value = -0.2

[[record]]
compound = "CN1CCN(c2cccc(Nc3nc4c(-c5ccc(S(C)(=O)=O)cc5)cccn4n3)c2)CC1"
observed_property = "thermal shift delta Tm"
meas_value = 0.39

[[record]]
compound = "COc1cc2c(Oc3ccc4[nH]c(C)cc4c3F)ncnc2cc1OCCCN1CCCC1 [Cediranib (AZD2171)]"
observed_property = "thermal shift delta Tm"
meas_value = 0.05

[[record]]
compound = "CNS(=O)(=O)Nc1nccc(Cc2c(C)c3ccc(Oc4ncccn4)cc3oc2=O)c1F"
observed_property = "thermal shift delta Tm"
meas_value = 0.47

[[record]]
compound = "O=c1c(O)c(-c2ccc(O)c(O)c2)oc2cc(O)cc(O)c12 [Quercetin]"
observed_property = "thermal shift delta Tm"
meas_value = 1.5

[[record]]
compound = "COc1ccc2c(Oc3ccc(NC(=O)c4c(C)n(CC(C)(C)O)n(-c5ccccc5)c4=O)nc3)ccnc2c1"
observed_property = "thermal shift delta Tm"
meas_value = 0.18

[[record]]
compound = "O=C(Nc1cnn2ccc(N3CCC[C@@H]3c3cc(F)ccc3F)nc12)N1CC[C@H](O)C1 [Larotrectinib (LOXO-101) sulfate]"
observed_property = "thermal shift delta Tm"
meas_value = -0.18

[[record]]
compound = "Cc1cc(C(=O)Nc2nc3cccc(Cl)c3n2[C@@H]2CCCCN(C(=O)/C=C/CN(C)C)C2)ccn1 [Nazartinib (EGF816, NVS-816)]"
observed_property = "thermal shift delta Tm"
meas_value = 0.04

[[record]]
compound = "CN(C)C[C@@H]1CCn2cc(c3ccccc32)C2=C(C(=O)NC2=O)c2cn(c3ccccc23)CCO1"
observed_property = "thermal shift delta Tm"
meas_value = -0.02

[[record]]
compound = "CNC(=O)c1cc(Oc2ccc(NC(=O)Nc3ccc(Cl)c(C(F)(F)F)c3)cc2)ccn1 [Sorafenib]"
observed_property = "thermal shift delta Tm"
meas_value = 0.71

[[record]]
compound = "C=CC(=O)N[C@H]1CCOC[C@H]1Nc1ncc2cc(-c3c(Cl)c(OC)cc(OC)c3Cl)ccc2n1"
observed_property = "thermal shift delta Tm"
meas_value = -0.01

[[record]]
compound = "O=C(Nc1cccnc1)c1cc(-c2ccnc(F)c2)ccc1OCc1ccccc1"
observed_property = "thermal shift delta Tm"
meas_value = 0.01

